# Experiment Summary: Fish acute toxicity
# Run Parameters: fish, in vivo; read-out: Fish acute toxicity, experimental, LC50
The reader will find reported LC50 values listed item by item below.

## Input Quick one: LC50 for CC(=O)CCC(=O)OCC(C)C [LAOC-4i, iso-butyl levulinate] ?
## Output < 100 µg/mL

## Input Quick one: LC50 for CCCCOC(=O)CCC(C)=O [LAOC-4, Butyl levulinate] ?
## Output < 100 µg/mL

Now, please, on to the next compound.
## Input Quick one: LC50 for CCCCCOC(=O)CCC(C)=O [LAOC-5, Pentyl levulinate] ?
## Output < 100 µg/mL
